Taken from ChEMBL document CHEMBL4265988.

test target: CAAX prenyl protease 1 homolog (Homo sapiens)
Sequence (whole entry): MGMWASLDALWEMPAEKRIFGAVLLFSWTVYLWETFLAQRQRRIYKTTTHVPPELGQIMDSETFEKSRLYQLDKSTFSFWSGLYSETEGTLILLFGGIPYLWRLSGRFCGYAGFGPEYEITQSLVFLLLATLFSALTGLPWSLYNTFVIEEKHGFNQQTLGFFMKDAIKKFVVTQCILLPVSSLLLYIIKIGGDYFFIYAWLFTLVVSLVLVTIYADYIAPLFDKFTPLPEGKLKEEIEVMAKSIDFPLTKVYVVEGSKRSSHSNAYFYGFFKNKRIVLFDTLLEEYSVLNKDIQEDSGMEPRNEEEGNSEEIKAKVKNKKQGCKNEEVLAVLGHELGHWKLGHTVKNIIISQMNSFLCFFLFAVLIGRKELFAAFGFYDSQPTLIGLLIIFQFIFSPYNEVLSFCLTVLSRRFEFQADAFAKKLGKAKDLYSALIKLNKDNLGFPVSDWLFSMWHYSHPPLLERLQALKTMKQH
protocol: Inhibition of ZMPSTE24 in human U2OS cells assessed as increase in intracellular accumulation of prelamin A at 10 uM after 24 hrs by Western blot analysis relative to control
Assay type: cell-based
quantity: fold change (FC)

Below, each entry is followed by its recorded fold change (FC) result.
Cc1cccc(C)c1OCC(=O)N[C@@H](Cc1ccccc1)[C@@H](O)C[C@H](Cc1ccccc1)NC(=O)[C@@H](NC(=O)c1cc(C(F)(F)F)cc(C(F)(F)F)c1)C(C)C	2.1
Cc1cccc(C)c1OCC(=O)N[C@@H](Cc1ccccc1)[C@@H](O)C[C@H](Cc1ccccc1)NC(=O)[C@@H](NC(=O)c1ccc([N+](=O)[O-])o1)C(C)C	2.5
Cc1cc(OC(F)(F)F)cc(C(=O)N[C@H](C(=O)N[C@@H](Cc2ccccc2)C[C@H](O)[C@H](Cc2ccccc2)NC(=O)COc2c(C)cccc2C)C(C)C)c1	2.7

[I] Cc1cccc(C)c1OCC(=O)N[C@@H](Cc1ccccc1)[C@@H](O)C[C@H](Cc1ccccc1)NC(=O)[C@@H](NC(=O)c1ccc(Br)cn1)C(C)C
[II] COc1cc(C(=O)N[C@H](C(=O)N[C@@H](Cc2ccccc2)C[C@H](O)[C@H](Cc2ccccc2)NC(=O)COc2c(C)cccc2C)C(C)C)cc(C(F)(F)F)c1
Exercise: Between these two entries, I and II , state which has the higher fold change (FC). Use the label to indicate which entry you chose.
Solution: I
